- target_desc: Programmed cell death protein 1/Programmed cell death 1 ligand 1 (Homo sapiens, UniProt Q9NZQ7)
- Sequence (Q15116 whole entry): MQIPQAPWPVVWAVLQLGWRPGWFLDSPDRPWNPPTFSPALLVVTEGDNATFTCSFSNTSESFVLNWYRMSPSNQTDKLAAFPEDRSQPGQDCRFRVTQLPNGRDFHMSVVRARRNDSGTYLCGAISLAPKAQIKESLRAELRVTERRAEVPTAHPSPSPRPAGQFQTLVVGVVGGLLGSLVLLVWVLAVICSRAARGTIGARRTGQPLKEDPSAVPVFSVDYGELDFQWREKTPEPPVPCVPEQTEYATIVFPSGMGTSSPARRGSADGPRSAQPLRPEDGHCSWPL
- Sequence (Q9NZQ7 whole entry): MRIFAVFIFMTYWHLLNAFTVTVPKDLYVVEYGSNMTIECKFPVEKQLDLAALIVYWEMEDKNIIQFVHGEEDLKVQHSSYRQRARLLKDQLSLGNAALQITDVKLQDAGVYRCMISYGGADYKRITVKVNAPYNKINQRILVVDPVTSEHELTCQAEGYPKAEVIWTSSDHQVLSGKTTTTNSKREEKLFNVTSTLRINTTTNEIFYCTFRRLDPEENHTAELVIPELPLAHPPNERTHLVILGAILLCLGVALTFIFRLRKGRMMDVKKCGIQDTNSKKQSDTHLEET
- protocol: Inhibition of Tag2-PD1/Tag1-PD-L1 (unknown origin) protein-protein interaction preincubated for 15 mins followed by addition of anti-Tag1-Eu3+ and anti-Tag2-XL665 measured after 2 hrs in dark by HTRF assay
pIC50: −log10 of the molar value.
property_name: pIC50

Worked examples follow.
* Cc1c(NC(=O)c2ccc(CNCCO)cc2)cccc1-c1ccc2c(c1)OCCO2 | < 6.00
* Cc1c(-c2ccc3c(c2)OCCO3)cccc1N1CCN(c2ccc(CNCCO)cn2)C1=O | < 6.00
* Cc1c(-c2ccc3c(c2)OCCO3)cccc1N1CCN(c2ncc(CNCCO)s2)C1=O | < 6.00
* Cc1c(-c2ccc3c(c2)OCCO3)cccc1N1CCN(c2cccc(CNCCO)c2)C1=O | < 6.00

Sure, the documented pIC50 for COc1cc(-c2cccc(-c3cccc(-c4ccc(CNCC(O)C(=O)O)c(OC)c4)c3C)c2C)ccc1CNCC(O)C(=O)O (stereo not given) is 8.40

----------
- target_desc: Programmed cell death protein 1/Programmed cell death 1 ligand 1 (Homo sapiens, UniProt Q9NZQ7)
- protocol: Inhibition of Tag2-PD1/Tag1-PD-L1 (unknown origin) protein-protein interaction preincubated for 15 mins followed by addition of anti-Tag1-Eu3+ and anti-Tag2-XL665 measured after 2 hrs in dark by HTRF assay
Quick reference for log10 of IC50 among some compounds
Values are log10 of IC50 in nM.

Worked examples follow.
* Cc1c(-c2ccc3c(c2)OCCO3)cccc1N(C)C(=O)c1ccc(CNCCO)cn1 | 2.88
* COc1cc(-c2cccc(-c3cccc(-c4ccc(CNC5CCOCC5)c(OC)c4)c3C)c2C)ccc1CNC1CCOCC1 | 1.54
* Cc1c(-c2ccc3c(c2)OCCO3)cccc1-c1ccc(CNCCO)o1 | 2.28
* COc1cc(-c2cccc(-c3cccc(-c4ccc(CNCC5CCC(=O)N5)c(OC)c4)c3C)c2C)ccc1CNCC1CCC(=O)N1 (stereo not drawn) | 2.14
* Cc1c(-c2ccc(CNCCO)cc2)cccc1-c1cccc(-c2ccc(CNCCO)cc2)c1C | 1.66
* COc1cc(-c2cccc(-c3cccc(-c4ccc(CN5CC(C(=O)O)C5)c(OC)c4)c3C)c2C)ccc1CN1CC(C(=O)O)C1 | 0.63
* O=C(c1ccc(CNCCO)cc1)n1ccc2c(-c3cccc4c3ccn4C(=O)c3ccc(CNCCO)cc3)cccc21 | 2.49
* COc1cc(-c2cccc(-c3cccc(-c4ccc(CNC(CO)CO)c(OC)c4)c3C)c2C)ccc1CO | 1.69

// switching to the query compound
Sure, the documented log10 of IC50 for COc1cc(-c2cccc(-c3cccc(-c4ccc(CNC(CO)C(=O)O)c(OC)c4)c3C)c2C)ccc1CNC(CO)C(=O)O (stereo not drawn) is 0.59

----------
Quick reference for pIC50 among some compounds
- target_desc: Programmed cell death protein 1/Programmed cell death 1 ligand 1 (Homo sapiens, UniProt Q9NZQ7)
- protocol: Inhibition of Tag2-PD1/Tag1-PD-L1 (unknown origin) protein-protein interaction preincubated for 15 mins followed by addition of anti-Tag1-Eu3+ and anti-Tag2-XL665 measured after 2 hrs in dark by HTRF assay
The value called pIC50 is obtained by taking minus log10 of the concentration in mol/L.

Worked examples follow.
* Cc1c(NC(=O)c2ccc(CNCCO)cn2)cccc1-c1ccc2c(c1)OCCO2 | 8.30
* COc1cc(-c2cccc(-c3cccc(-c4ccc(CNC5CCCC5O)c(OC)c4)c3C)c2C)ccc1CNC1CCCC1O (centres undefined) | 7.44
* O=C(c1ccc(CNCCO)cc1)N1CCc2c(-c3cccc4c3CCN4C(=O)c3ccc(CNCCO)cc3)cccc21 | 7.73
* O=C(c1ccc(CNCCO)cc1)N1CCc2c(-c3ccc4c(c3)OCCO4)cccc21 | 6.82
* Cc1c(-c2ccc(CNCCO)cc2)cccc1-c1ccc2c(c1)OCCO2 | 7.79
* COc1cc(-c2cccc(-c3cccc(-c4ccc(CO)c(OC)c4)c3C)c2C)ccc1CO | 6.32

Sure, the documented pIC50 for COc1cc(-c2cccc(-c3cccc(-c4ccc(CNCCO)c(OC)c4)c3C)c2C)ccc1CNCCO is 7.31

Sure, the documented pIC50 for Cc1c(-c2ccc3c(c2)OCCO3)cccc1-c1ccc(CNCCO)cn1 is 7.71

Sure, the documented pIC50 for COc1cc(-c2cccc(-c3cccc(-c4ccc(CN5CCCCC5C(=O)O)c(OC)c4)c3C)c2C)ccc1CO (centres undefined) is 6.33
